- Tested on: ZAK
- reportedConditions: concentration: 1 μM, replicates: in singlicate; n = 1;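 further: KINOMEscan kinase panel screen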
attributeMeasured: %Inh (%)
Respond numerically; units are % and should not be typed.

Solved cases (5 shown):
compound: Cl.N#CCc1ccc(Nc2nccc(Nc3ccc(Oc4ccccc4)cc3)n2)cc1 [GW639905]
attributeMeasured: %Inh
unitTag: %
measuredValue: 45
//
compound: CN1CCN(Cc2ccc(NC(=O)Nc3ccc(N(C)c4ccnc(Nc5ccc(CS(C)(=O)=O)cc5)n4)cc3)cc2)CC1.Cl [GW827654]
attributeMeasured: %Inh
unitTag: %
measuredValue: 21
//
compound: O=C1NC(=O)C(c2ccccc2Cl)=C1Nc1cccc(Cl)c1 [SB-342409]
attributeMeasured: %Inh
unitTag: %
measuredValue: 21
//
compound: Cc1ccc(NC(=O)c2ccnc(N3CCCCC3)c2)cc1-c1ccc(C(=O)NCC2CC2)cc1 [GW775610]
attributeMeasured: %Inh
unitTag: %
measuredValue: 21
//
compound: COc1cc(Nc2nccc(N3CCC(NC(=O)Nc4ccc5c(c4)OCO5)C3)n2)cc(OC)c1OC (centres unmarked) [GSK1379766]
attributeMeasured: %Inh
unitTag: %
measuredValue: 34

Request: // %Inh lookup, key: Nc1ncc(-c2ccc3nccc(-c4ccncc4)c3c2)cc1S(=O)(=O)N1CCCCC1 [GSK1693850]
Response: 22

Request: // %Inh lookup, key: O=C(Nc1n[nH]c2nc(-c3cccc(O)c3)ccc12)C1CC1 [SB-711805]
Response: 25

Request: // %Inh lookup, key: Cc1cccc(Nc2nc(NCCN)ncc2C(N)=O)c1 [GSK1292139]
Response: 0

Request: // %Inh lookup, key: Cn1cc(-c2ccc3c(c2)CCN3C(=O)Cc2cc(F)cc(C(F)(F)F)c2)c2c(N)ncnc21 [GSK2635225]
Response: 11

Request: // %Inh lookup, key: O=C(Nc1c(F)cccc1F)c1cc(C(=O)c2ccccc2F)c[nH]1 [GSK1326180]
Response: 0

Request: // %Inh lookup, key: Cn1cc(-c2cnc(N)c3c(-c4ccc5c(c4)CCN5C(=O)Cc4ccccc4)csc23)cn1 [GSK2593074]
Response: 59

###

- Test system: TYK2(JH2domain-pseudokinase)
- reportedConditions: concentration: 1 μM, replicates: in singlicate; n = 1
attributeMeasured: %Inh (%)
Respond numerically; units are % and should not be typed.

Solved cases (2 shown):
smilesStr: COc1cccc(CC(=O)N2CCc3cc(-c4cn(C)c5ncnc(N)c45)ccc32)c1
%Inh / %: 39

smilesStr: CC(C)c1nc(-c2ccc(F)c(NS(=O)(=O)c3c(F)cccc3F)c2)c(-c2ccnc(Nc3ccc(N4CCOCC4)nc3)n2)s1
%Inh / %: 0

Request: // %Inh lookup, key: `CN(c1ccc2c(c1)nc(NCc1ccccc1)n2C)c1ccnc(Nc2ccc(CS(C)(=O)=O)cc2)n1.Cl`
Response: 0

Request: // %Inh lookup, key: `Fc1cc(Cl)ccc1Nc1ccnc2cc(-c3ccc(CN4CCSCC4)o3)ccc12`
Response: 52

###

Each record here notes measured %Inh.
- Test system: EPHB1
- reportedConditions: concentration: 1 μM, replicates: in singlicate; n = 1
Respond numerically; units are % and should not be typed.

Solved cases (5 shown):
compound: CC(C)(C)c1ccc(C(=O)Nc2cn3cc(-n4ccnc4)ccc3n2)cc1
%Inh / %: 3
--
compound: CN1CCN(Cc2ccc(NC(=O)Nc3ccc(N(C)c4ccnc(Nc5ccc(CS(C)(=O)=O)cc5)n4)cc3)cc2)CC1.Cl [GW827654]
%Inh / %: 11
--
compound: CN(C)CCNS(=O)(=O)c1ccc(-c2ccnc3[nH]ccc23)cc1 [GSK977620]
%Inh / %: 16
--
compound: Cc1nn2c(=O)cc(N3CCO[C@H](C)C3)nc2n1Cc1cccc(Cl)c1Cl [GSK2373693]
%Inh / %: 3
--
compound: CN(C)c1ncnc2nc[nH]c12 [SKF-31736]
%Inh / %: 0

Request: // %Inh lookup, key: Cl.Cl.NC(CNC(=O)c1cc(Br)c(-c2ccnc3[nH]ccc23)s1)c1ccccc1 (centres unmarked) [GSK1322949]
Response: 27

Request: // %Inh lookup, key: COc1cc(Nc2ccnc3cc(-c4ccncc4)ccc23)cc(OC)c1OC.Cl [GW494610]
Response: 74

Request: // %Inh lookup, key: `CN(c1ccc(F)c(NC(=O)c2cccc(OC(C)(C)C#N)c2Cl)c1)c1ccc2nc(NC(=O)C3CC3)sc2n1`
Response: 10
